- target.system: T1, human LTBR on cells (human, UniProt P36941 31-435)
- T1 construct: also called recombinant human LTBR CHO cells; CHO-K1 cells overexpressing human LTBR
- method.notes: FACS CHO-huLTBR, 0.03 µg/ml
recorded.endpoint: MFI

Example cases with answers are listed next.
{"binder": "P1AF0079 (antibody, human IgG1, kappa, L234A L235A, V domains shown, human IgG1 PG LALA; from transgenic rabbit immunization; also called LTBR (0079)) VH: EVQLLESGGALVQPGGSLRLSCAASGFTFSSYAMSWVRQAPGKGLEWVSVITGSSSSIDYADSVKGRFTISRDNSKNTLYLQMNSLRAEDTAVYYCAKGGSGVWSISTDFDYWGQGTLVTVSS VL: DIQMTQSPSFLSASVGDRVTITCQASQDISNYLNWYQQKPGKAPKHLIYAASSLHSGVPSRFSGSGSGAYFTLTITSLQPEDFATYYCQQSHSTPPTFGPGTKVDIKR", "MFI": "8280 MFI"}
{"binder": "P1AE9459 (antibody, human IgG1, kappa, L234A L235A, V domains shown, human IgG1 PG LALA; from transgenic rabbit immunization) VH: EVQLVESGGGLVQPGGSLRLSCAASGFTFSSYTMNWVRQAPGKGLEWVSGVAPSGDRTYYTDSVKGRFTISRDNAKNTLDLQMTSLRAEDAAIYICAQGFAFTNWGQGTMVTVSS VL: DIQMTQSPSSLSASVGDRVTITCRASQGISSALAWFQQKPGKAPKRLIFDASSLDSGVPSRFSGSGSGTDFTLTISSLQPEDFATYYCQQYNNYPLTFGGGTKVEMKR", "MFI": "6760 MFI"}
{"binder": "P1AE1873 (CBE11) (antibody, human IgG1, kappa, L234A L235A, V domains shown) VH: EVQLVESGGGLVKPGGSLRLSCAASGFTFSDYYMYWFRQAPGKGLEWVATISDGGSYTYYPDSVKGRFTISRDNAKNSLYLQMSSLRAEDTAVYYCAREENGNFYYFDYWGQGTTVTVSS VL: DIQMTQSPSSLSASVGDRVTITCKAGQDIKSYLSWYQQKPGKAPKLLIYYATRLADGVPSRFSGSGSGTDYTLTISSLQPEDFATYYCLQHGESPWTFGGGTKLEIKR", "MFI": "6230 MFI"}

query: GET /values?readout=MFI&item= P1AF0080 (antibody, human IgG1, kappa, L234A L235A, V domains shown, human IgG1 PG LALA; from transgenic rabbit immunization; also called LTBR (0080)) VH: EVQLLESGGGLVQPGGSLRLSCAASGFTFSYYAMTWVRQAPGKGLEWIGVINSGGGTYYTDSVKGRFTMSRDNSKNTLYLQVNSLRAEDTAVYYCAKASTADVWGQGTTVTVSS VL: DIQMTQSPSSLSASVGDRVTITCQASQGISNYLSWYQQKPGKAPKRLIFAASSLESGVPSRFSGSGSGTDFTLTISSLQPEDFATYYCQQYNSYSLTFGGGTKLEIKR
result: 8970 MFI
